SYSTEM_UNDER_TEST: Topoisomerase IV (Staphylococcus aureus, UniProt P0C1S7+P0C1U9)
Sequence (P0C1U9 whole entry): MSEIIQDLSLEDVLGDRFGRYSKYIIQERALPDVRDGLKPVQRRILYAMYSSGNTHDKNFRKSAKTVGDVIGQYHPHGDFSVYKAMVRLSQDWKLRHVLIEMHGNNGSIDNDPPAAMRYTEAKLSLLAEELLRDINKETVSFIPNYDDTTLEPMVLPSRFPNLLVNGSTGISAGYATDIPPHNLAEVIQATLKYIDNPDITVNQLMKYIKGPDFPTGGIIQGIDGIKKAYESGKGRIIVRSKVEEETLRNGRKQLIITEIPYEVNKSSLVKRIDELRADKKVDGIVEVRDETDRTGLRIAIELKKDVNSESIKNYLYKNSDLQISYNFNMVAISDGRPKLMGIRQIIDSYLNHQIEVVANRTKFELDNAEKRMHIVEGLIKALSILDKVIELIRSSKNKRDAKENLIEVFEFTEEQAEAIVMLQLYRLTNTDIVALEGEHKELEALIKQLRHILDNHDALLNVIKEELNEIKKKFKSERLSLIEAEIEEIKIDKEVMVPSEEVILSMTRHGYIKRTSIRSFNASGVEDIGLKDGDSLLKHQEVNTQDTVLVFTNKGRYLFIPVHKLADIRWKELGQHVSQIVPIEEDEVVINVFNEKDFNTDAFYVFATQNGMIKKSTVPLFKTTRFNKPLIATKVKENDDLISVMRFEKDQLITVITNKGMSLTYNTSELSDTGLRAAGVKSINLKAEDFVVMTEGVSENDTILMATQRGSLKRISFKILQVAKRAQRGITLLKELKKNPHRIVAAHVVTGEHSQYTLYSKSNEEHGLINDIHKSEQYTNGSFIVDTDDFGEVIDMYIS
Sequence (P0C1S7 whole entry): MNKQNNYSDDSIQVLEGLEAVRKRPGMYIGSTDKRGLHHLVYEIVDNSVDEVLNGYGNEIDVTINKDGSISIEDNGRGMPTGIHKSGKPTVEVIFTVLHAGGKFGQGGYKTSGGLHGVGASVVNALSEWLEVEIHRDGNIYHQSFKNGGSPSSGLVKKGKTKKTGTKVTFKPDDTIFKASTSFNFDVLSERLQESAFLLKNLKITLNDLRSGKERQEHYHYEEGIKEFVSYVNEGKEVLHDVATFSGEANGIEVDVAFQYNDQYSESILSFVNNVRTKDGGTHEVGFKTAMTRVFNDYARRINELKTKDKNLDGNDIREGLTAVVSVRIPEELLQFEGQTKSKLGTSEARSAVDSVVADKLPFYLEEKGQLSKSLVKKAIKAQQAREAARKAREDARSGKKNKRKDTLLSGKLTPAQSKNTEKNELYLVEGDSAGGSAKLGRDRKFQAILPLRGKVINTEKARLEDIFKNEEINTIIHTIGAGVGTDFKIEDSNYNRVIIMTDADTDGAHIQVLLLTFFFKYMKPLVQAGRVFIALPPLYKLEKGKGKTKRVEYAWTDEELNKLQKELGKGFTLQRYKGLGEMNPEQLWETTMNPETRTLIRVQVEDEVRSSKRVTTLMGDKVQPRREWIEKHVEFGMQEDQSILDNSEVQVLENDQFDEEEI
RUN_DESCRIPTION: Inhibition of Staphylococcus aureus topoisomerase 4 using pNO1 plasmid DNA as substrate incubated for 30 mins by fluorescence based microtiter plate reader assay
ASSAY_READOUT: IC50 (µM)
Answers are plain numbers, in µM.

Ask | What measured IC50 goes with COc1ccc2ncc(F)c(CCCN3CCN(CCCc4ccccc4)C[C@@H]3C(=O)O)c2c1 ?
Reply | 10.2

Ask | Please give the measured IC50 for this compound: COc1ccc2ncc(F)c(C#CCN3CCN(CCSc4cccs4)C[C@@H]3C(=O)O)c2c1
Reply | 2.47

Ask | Can you share its IC50? I mean this compound: COc1ccc2ncc(F)c(CCCN3CCN(CCc4ccccc4)C[C@@H]3C(=O)O)c2c1
Reply | 12.6

Ask | What value of measured IC50 is listed for COc1ccc2ncc(F)c(CCCN3CCN(C/C=C/c4cc(F)ccc4F)C[C@@H]3C(=O)O)c2c1 ?
Reply | 2.41

Ask | Recorded IC50 for COc1ccc2ncc(F)c([C@@H](O)CC[C@@H]3CCN(CCSc4cccs4)C[C@@H]3C(=O)O)c2c1 , please?
Reply | 8.8

Give IC50 for each of the items listed below.
1. COc1ccc2ncc(F)c(CCCN3CCN(C/C=C/c4ccccc4)C[C@@H]3C(=O)O)c2c1
2. COc1ccc2ncc(F)c(/C=C\CN3CCN(CCSc4cccs4)C[C@@H]3C(=O)O)c2c1

Reply |
3.36
9.92

---

SYSTEM_UNDER_TEST: Voltage-gated inwardly rectifying potassium channel KCNH2 (Homo sapiens, UniProt Q12809)
Sequence (Q12809 whole entry): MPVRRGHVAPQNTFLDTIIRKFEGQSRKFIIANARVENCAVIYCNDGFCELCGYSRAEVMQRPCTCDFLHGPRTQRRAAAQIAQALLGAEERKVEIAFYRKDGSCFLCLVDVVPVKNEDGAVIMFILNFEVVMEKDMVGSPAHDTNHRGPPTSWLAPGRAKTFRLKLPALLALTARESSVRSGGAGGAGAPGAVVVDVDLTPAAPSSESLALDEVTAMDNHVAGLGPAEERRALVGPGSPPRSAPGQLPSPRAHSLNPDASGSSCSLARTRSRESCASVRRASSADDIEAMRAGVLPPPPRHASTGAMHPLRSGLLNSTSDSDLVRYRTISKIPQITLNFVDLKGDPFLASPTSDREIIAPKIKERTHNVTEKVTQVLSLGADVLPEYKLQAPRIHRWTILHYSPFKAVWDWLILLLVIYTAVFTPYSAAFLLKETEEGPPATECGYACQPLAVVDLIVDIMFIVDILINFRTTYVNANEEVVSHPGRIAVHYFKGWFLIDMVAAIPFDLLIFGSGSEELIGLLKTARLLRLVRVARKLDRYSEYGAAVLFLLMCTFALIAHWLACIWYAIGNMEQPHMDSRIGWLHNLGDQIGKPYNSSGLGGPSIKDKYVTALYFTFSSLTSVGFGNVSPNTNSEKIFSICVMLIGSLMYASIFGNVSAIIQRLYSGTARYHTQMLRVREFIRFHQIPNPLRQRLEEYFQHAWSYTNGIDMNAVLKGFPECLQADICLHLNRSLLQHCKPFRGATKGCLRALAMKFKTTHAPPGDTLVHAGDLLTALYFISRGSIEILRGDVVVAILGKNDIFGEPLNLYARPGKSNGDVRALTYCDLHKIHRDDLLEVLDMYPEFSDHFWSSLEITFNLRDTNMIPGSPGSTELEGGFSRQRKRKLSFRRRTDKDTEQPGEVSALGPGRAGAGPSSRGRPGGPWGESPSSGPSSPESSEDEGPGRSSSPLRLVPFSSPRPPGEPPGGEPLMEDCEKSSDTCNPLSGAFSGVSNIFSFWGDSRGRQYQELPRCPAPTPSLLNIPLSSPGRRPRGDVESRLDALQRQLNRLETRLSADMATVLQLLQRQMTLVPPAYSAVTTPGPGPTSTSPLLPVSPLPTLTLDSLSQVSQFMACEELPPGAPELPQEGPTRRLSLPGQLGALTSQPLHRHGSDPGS
RUN_DESCRIPTION: Inhibition of hERG by fluorescence polarization assay
pEC50: −log10 of the molar value.
So I've got a bunch of compounds here, and I need their pEC50 values.

Ask | Tell me the measured pEC50 of COc1ccc2ncc(F)c(/C=C/CN3CCN(CCSc4cccs4)C[C@@H]3C(=O)O)c2c1 , please.
Reply | > 4.52

Ask | // lookup pEC50 for COc1ccc2ncc(F)c(CCCN3CCN(C(=O)CSc4ccccc4)C[C@@H]3C(=O)O)c2c1
Reply | > 4.52

---
Ask | Reported pEC50, compound COc1ccc2ncc(F)c(CCCN3CCN(CCSc4cccs4)[C@@H](C(=O)O)C3)c2c1 : ____
Reply | > 4.52

This collection of values is drawn from ChEMBL document CHEMBL5131416.
